Attribution: patent US20260306525A1

Tested on: mmp13
Test: qPCR mmp13 expression in zebrafish larvae
Type: in vivo, zebrafish (Danio rerio)
Conditions: Example 2, wounded larvae

[
  {
    "Compound": "CC(C)=CCC[C@](C)(O)[C@H]1CC[C@]2(C)[C@@H]1[C@H](O)C[C@@H]1[C@@]3(C)CC[C@H](O)C(C)(C)[C@@H]3[C@@H](O)C[C@]12C [PPT, Protopanaxatriol]",
    "mmp13 expression": "Only a minor effect"
  },
  {
    "Compound": "CC(C)=CCC[C@](C)(O[C@@H]1O[C@H](CO)[C@@H](O)[C@H](O)[C@H]1O)[C@H]1CC[C@]2(C)[C@@H]1[C@H](O)C[C@@H]1[C@@]3(C)CC[C@H](O)C(C)(C)[C@@H]3[C@@H](O[C@@H]3O[C@H](CO)[C@@H](O)[C@H](O)[C@H]3O)C[C@]12C [Rg1]",
    "mmp13 expression": "no effect"
  },
  {
    "Compound": "CC(C)=CCC[C@](C)(O)[C@H]1CC[C@]2(C)[C@@H]1[C@H](O)C[C@@H]1[C@@]3(C)CC[C@H](O)C(C)(C)[C@@H]3[C@@H](O[C@@H]3O[C@H](CO)[C@@H](O)[C@H](O)[C@H]3O)C[C@]12C [Rh1]",
    "mmp13 expression": "no effect"
  },
  {
    "Compound": "CC(C)=CCC[C@](C)(O[C@@H]1O[C@H](CO)[C@@H](O)[C@H](O)[C@H]1O)[C@H]1CC[C@]2(C)[C@@H]1[C@H](O)C[C@@H]1[C@@]3(C)CC[C@H](O)C(C)(C)[C@@H]3[C@@H](O)C[C@]12C [F1]",
    "mmp13 expression": "Only a minor effect"
  }
]
